Target: human recombinant 5-HT2c receptor (Homo sapiens, UniProt P28335)
Sequence (P28335 33-458): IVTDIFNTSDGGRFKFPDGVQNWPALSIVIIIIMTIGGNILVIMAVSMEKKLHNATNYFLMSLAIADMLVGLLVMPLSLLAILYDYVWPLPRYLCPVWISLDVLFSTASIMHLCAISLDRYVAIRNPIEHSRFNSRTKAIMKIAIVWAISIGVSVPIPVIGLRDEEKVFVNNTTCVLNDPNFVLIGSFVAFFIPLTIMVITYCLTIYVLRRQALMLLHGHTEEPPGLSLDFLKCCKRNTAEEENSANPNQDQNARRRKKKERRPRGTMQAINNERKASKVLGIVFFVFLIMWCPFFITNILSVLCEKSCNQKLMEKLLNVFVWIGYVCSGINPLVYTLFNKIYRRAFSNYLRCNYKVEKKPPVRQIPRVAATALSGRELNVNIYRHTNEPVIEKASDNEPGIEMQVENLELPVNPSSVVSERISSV
Assay: 3H-meselurgine radioligand binding SPA, membranes from Swiss 3T3 cells (Method 2)
Conditions: 3H-meselurgine displacement, Cheng-Prusoff; Swiss 3T3 membranes; read-out: Binding Affinity Ki
Protocol: The compounds of the invention were evaluated for biological activity by measuring the agonist affinity (EC50) and efficacy (Emax) at the human recombinant 5-HT2c receptor expressed in CHO K1 cells, using a fluorescent based Ca^2+ mobilisation assay format compatible with FLIPR technology (Method 1). Additionally, the binding activity of a compound was determined by measuring its affinity for the human recombinant 5-HT2c receptor membranes from Swiss 3T3 cells (Method 2). […]
Counter-ions that a name gives are not always drawn.
Our labelling divides records by Ki into ranges: interval 1 (below 100 nM), interval 2 (100 nM to below 200 nM), interval 3 (200 nM or more)

{"compound": "OCCNc1nc(Cc2ccccc2)nc2c1CCNCC2 [Example 23, hydrochloride]", "assigned_class": "interval 2"}
{"compound": "OC1CCCN(c2nc(Cc3ccccc3)nc3c2CCNCC3)C1 (stereo not drawn) [Example 18, hydrochloride]", "assigned_class": "interval 3"}
{"compound": "OC1(CNc2nc(Cc3ccccc3)nc3c2CCNCC3)CCC1 [Example 41, hydrochloride]", "assigned_class": "interval 1"}
{"compound": "CC1CNCCc2cnc(Cc3ccccc3)nc21 (single isomer, unassigned) [47 (Peak 1)]", "assigned_class": "interval 2"}
{"compound": "CN(CC1CC1)c1nc(N2CCSCC2)nc2c1CCNCC2", "assigned_class": "interval 1"}
{"compound": "c1ccc(Cc2nc3c(c(NC4CCOC4)n2)CCNCC3)cc1 (stereo not drawn) [Example 39, hydrochloride]", "assigned_class": "interval 3"}
{"compound": "Cc1cccc(Cc2ncc3c(n2)CCNCC3)c1", "assigned_class": "interval 3"}
{"compound": "c1ccc(Cc2nc3c(c(-n4ccnc4)n2)CCNCC3)cc1", "assigned_class": "interval 3"}

* * *

Target: human recombinant 5-HT2c receptor (Homo sapiens, UniProt P28335)
Construct: expressed in transfected cells; host or cells: CHO K1 (Chinese hamster ovary), stably transfected
Experiment: FLIPR fluorescent Ca2+ mobilisation agonist assay in CHO K1 cells (Method 1)
Type: cell-based
Conditions: CHO-K1, efficacy, percentage of mean maximal response to 10 μM 5-HT
Counter-ions that a name gives are not always drawn.
Our labelling divides records by Emax into ranges: lo (below 40%), med (40% to below 60%), hi (60% or more)

{"compound": "CN(Cc1ccccc1)c1nc2c(c(N3CCOCC3)n1)CCNCC2", "assigned_class": "hi"}
{"compound": "FC1CCN(c2nc(Cc3ccccc3)nc3c2CCNCC3)C1 (stereo not shown) [Example 43, hydrochloride]", "assigned_class": "med"}
{"compound": "CCNc1nc2c(c(N(C)CC3CC3)n1)CCNCC2", "assigned_class": "med"}
{"compound": "CC(C)(c1ccccc1)c1nc2c(c(N3CCOCC3)n1)CCNCC2", "assigned_class": "hi"}
{"compound": "c1ccc(C2(c3nc4c(c(N5CCOCC5)n3)CCNCC4)CC2)cc1", "assigned_class": "hi"}
{"compound": "CC(CN1CCOCC1)Oc1nc(Cc2ccccc2)nc2c1CCNCC2 (stereo not shown)", "assigned_class": "hi"}
{"compound": "CCCCc1nc(Cc2ccccc2)nc2c1CCNCC2", "assigned_class": "hi"}
{"compound": "Cc1ccc(Cc2ncc3c(n2)CCNCC3)cc1", "assigned_class": "hi"}
{"compound": "c1ccc2c(c1)CCN(c1nc3c(c(N4CCSCC4)n1)CCNCC3)C2", "assigned_class": "hi"}
{"compound": "c1ccc(CNc2nc(N3CCC3)nc3c2CCNCC3)cc1", "assigned_class": "med"}
{"compound": "OC(c1ccccc1)c1ncc2c(n1)CCNCC2 (single isomer, unassigned; stereoisomer 1)", "assigned_class": "hi"}
{"compound": "CCOc1nc(C(C)c2ccccc2)nc2c1CCNCC2 (stereo not shown)", "assigned_class": "lo"}
{"compound": "COc1nc(N(C)Cc2ccccc2)nc2c1CCNCC2", "assigned_class": "med"}
{"compound": "c1ccc(Cc2nc3c(c(N4CCCCC4)n2)CCNCC3)cc1 [Example 29, hydrochloride]", "assigned_class": "lo"}
{"compound": "c1ccc(Cc2nc3c(c(NCCn4cccn4)n2)CCNCC3)cc1 [Example 27, hydrochloride]", "assigned_class": "lo"}
{"compound": "c1ccc(Cc2nc3c(c(NC4CCOC4)n2)CCNCC3)cc1 (stereo not shown) [Example 39, hydrochloride]", "assigned_class": "lo"}
{"compound": "CCCNc1nc(N(C)CC2CC2)nc2c1CCNCC2", "assigned_class": "lo"}
{"compound": "OC1CCN(c2nc(Cc3ccccc3)nc3c2CCNCC3)C1 (stereo not shown) [Example 44, hydrochloride]", "assigned_class": "hi"}
{"compound": "C1Cc2nc(N3CCSCC3)nc(N3CCSCC3)c2CCN1", "assigned_class": "hi"}
{"compound": "CC(C)(c1ccccc1)c1ncc2c(n1)CCNCC2", "assigned_class": "med"}
{"compound": "c1ccc(CCNc2nc(N3CCSCC3)nc3c2CCNCC3)cc1", "assigned_class": "hi"}
{"compound": "c1ccc(Cc2nc3c(c(NCC4CCCO4)n2)CCNCC3)cc1 (stereo not shown) [Example 19, hydrochloride]", "assigned_class": "lo"}
{"compound": "CC(c1ccccc1)c1ncc2c(n1)CCNCC2 (stereo not shown)", "assigned_class": "hi"}
